# protocol-details: JC-1 mitochondrial signal, unstimulated adipocytes – cell-based, JC-1 fluorescence, 3T3-L1 adipocytes, 24 h, 100 nL compound, profiling panel (AID 1168); further: test concentration not given here
# run-parameters: JC-1 mitochondrial fluorescence, higher = more signal, called active from +8 up or from −8 down
Decision: z-score compared against -0.3; not below it gives satisfied, below it gives not satisfied.

# molecule, group
records = [
    ("CN1C(=O)C2C=CC(C(O)c3ccc(-c4ccccc4)s3)N(NC(=O)OC(C)(C)C)C2C1=O (stereo not drawn)", "not satisfied"),
    ("CCOC(=O)C1=CC[C@@H](c2ccccc2)N(S(=O)(=O)c2ccc(C)cc2)[C@H]1c1ccccc1I", "not satisfied"),
    ("COc1cc(C(O)C2C=CC3C(=O)N(c4ccccc4)C(=O)C3N2Nc2ccccc2)cc(OC)c1OC (stereo not drawn)", "not satisfied"),
    ("C=C(CCCC)C(=O)CC[C@@H](OC(=O)c1ccccc1-c1ccccc1C(=O)O)c1ccccc1OCCO", "satisfied"),
    ("CC(=O)c1ccc(C(O)C2C=CC3C(=O)N(c4ccccc4)C(=O)C3N2Nc2ccc(C(C)C)cc2)cc1 (stereo not drawn)", "not satisfied"),
    ("CCCCCCc1nc(-c2ccc(-c3ccc(Cl)c(Cl)c3)o2)cc2c1[Si](C(C)C)(C(C)C)OC2", "satisfied"),
]

Lookup: Is reported z-score greater than or equal to -0.3 here: `COC(=O)[C@@]1(Cc2ccc(F)cc2)[C@H]2c3cc(C(=O)N4CCCC4)n(CCc4ccccn4)c3C[C@H]2CN1C(=O)c1ccccc1`
Found: not satisfied

* * *

# protocol-details: probe aLefty1 binding on compound microarray – biochemical, small-molecule microarray, 635/667 nm fluorescence, primary screen (AID 1153);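 further: score merges spot fluorescence with signal-to-noise ratio from the scanned slide images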
# run-parameters: higher = more signal
Think of 0.3 as a floor: if composite z-score stands on it or above, it is T; beneath it, F.

Lookup: Please tell me: is the compound `O=C1O[C@@H](c2ccccc2)[C@@H](c2ccccc2)N2[C@@H](c3ccc(OCCO)cc3)[C@]3(C(=O)Nc4ccc(C#CC5(O)CCCCCC5)cc43)[C@@H](C(=O)Nc3nc4ccccc4s3)[C@H]12` at or over 0.3 in terms of composite z-score?
Found: F

Lookup: Hi, just wondering whether `COC(=O)C(CC#Cc1ccc2c(c1)[C@]1(C(=O)N2)[C@H](C(=O)NC[C@H](O)c2ccccc2)[C@H]2C(=O)O[C@H](c3ccccc3)[C@H](c3ccccc3)N2[C@@H]1c1ccccc1OCCO)C(=O)OC` shows composite z-score of 0.3 or higher.
Found: F

Lookup: In plain terms: is recorded composite z-score at least 0.3 for `CCCC[C@H]1C[C@@H]1[C@@H]1N(C(C)=O)[C@H](c2cccc(OC)c2)CC12CC2` ?
Found: T

Lookup: Could you please find out whether `C[C@@H]1ON(c2ccccc2)[C@H](c2ccccc2)[C@H]1C(=O)O` has composite z-score that meets 0.3 or exceeds it?
Found: F

Lookup: Has `COCCOC(=O)N1C(=O)[C@@]2(c3cc(C#CCC(C(=O)OC)C(=O)OC)ccc31)[C@H](c1ccc(O)cc1)N1[C@H](c3ccccc3)[C@H](c3ccccc3)OC(=O)[C@H]1[C@@H]2C(=O)Nc1nc2ccccc2s1` a recorded composite z-score greater than or equal to 0.3?
Found: F

* * *

# protocol-details: inhibition of PAO1 biofilm formation – strain PAO1, LB-PBS medium, absorbance 600 nm, primary screen (AID 1176); further: test concentration not given here
# run-parameters: P. aeruginosa PAO1 growth/biofilm, A600, 12 h; higher = more signal
molecules and their reported z-score
Hey, just send me the number, nothing else.

Here are 5 molecules together with their reported answers.
# molecule, recorded-measurement
rows = [
    ("NC(=O)NCC#Cc1ccc2c(c1)[C@]1(C(=O)N2)[C@H](c2ccc(OCCO)cc2)N2[C@H](c3ccccc3)[C@H](c3ccccc3)OC(=O)[C@H]2[C@@H]1C(=O)O", 1.01),
    ("C=C(CCCC)C(=O)CC[C@H](OC(=O)c1ccccc1-c1ccccc1C(=O)O)c1ccc(OCCO)cc1", 0.203),
    ("COC(=O)[C@H](Cc1ccc(O)cc1)N[C@@H](/C=C/C1CC1)[C@H](O)Cc1ccccc1", -0.459),
    ("COc1ccc(NN2C(C(O)c3ccc(I)cc3)C=CC3C(=O)N(C4CCCCC4)C(=O)C32)cc1 (stereo not given)", 0.726),
    ("C=CCNC(=O)[C@H]1[C@@H]2C(=O)O[C@@H](c3ccccc3)[C@@H](c3ccccc3)N2[C@@H](c2ccc(OCCO)cc2)[C@]12C(=O)Nc1ccccc12", -0.172),
]

Lookup: I'd like to know its z-score. The molecule in question is `CCCN1C(=O)[C@@]2(c3ccc([N+](=O)[O-])cc3)CC(=O)N(CC34CC5CC(CC(C5)C3)C4)[C@@H]2c2ccc(CO)cc21`
Found: 0.186

Lookup: What value of measured z-score is listed for `O=C(NCc1ccccc1)[C@@H]1c2ccccc2C(=O)N(Cc2ccc(OC(F)(F)F)cc2)[C@H]1c1ccc(CO)cc1` ?
Found: -0.109

Lookup: Item under review: `Cc1ccc(S[C@]2(C(=O)NC(C)C)CC(=O)N(C3CCCCC3)[C@@H]2c2ccc(CO)cc2I)cc1` . Reported z-score?
Found: 0.462

Lookup: What value of z-score has been reported for the following molecule? `O=C(NCCN1CCOCC1)[C@@H]1c2ccccc2C(=O)N(Cc2ccccc2C(F)(F)F)[C@H]1c1ccc(CO)cc1`
Found: -0.342

Lookup: Name the reported z-score value associated with the molecule CCOc1cc(C(O)C2C=CC3C(=O)N(c4ccccc4)C(=O)C3N2Nc2ccccc2F)ccc1O (stereo not given)
Found: 0.931

Lookup: Which z-score reading was recorded for the molecule O=C(NCC(O)CO)[C@@]1(CCS(=O)(=O)c2ccccc2)N=C(c2ccc(OCCCO)cc2)O[C@H]1c1ccccc1 (stereo not given in full) ?
Found: 0.618

Lookup: Consider the molecule shown here: CC(=O)c1ccc(C(O)C2C=CC3C(=O)N(c4ccccc4)C(=O)C3N2Nc2ccc(C(C)C)cc2)cc1 (stereo not given) What is its recorded z-score?
Found: 0.503

Lookup: May I ask what z-score has been recorded for NC(=O)N1C(=O)C2C(C1=O)C1C=C(CCCO)C2C(c2ccc(CN3CCCC3)cc2)N1Cc1cc2c(cc1Br)OCO2 (stereo not given) ?
Found: 0.792

Lookup: What value of z-score has been recorded for this entry: `CN(C)CCCNC(=O)[C@@H]1c2ccccc2C(=O)N(Cc2ccccc2C(F)(F)F)[C@H]1c1ccc(CO)cc1`
Found: -0.534

Lookup: // returns reported z-score for input `CN(C)CCCNC(=O)[C@@]1(C)c2ccccc2C(=O)N(Cc2ccc(OC(F)(F)F)cc2)[C@H]1c1ccc(CO)cc1`
Found: 0.236

Values from PubChem BioAssay
